For each entry below, report its pKd value.
- TARGET OR SYSTEM: T1, human TL1A (Fitzgerald #30R-AT070) (human, UniProt O95150 72-251, limits assumed)
- T1 construct: Coated on the ELISA plate at 1 ug/mL; also called TNFSF15
- T1 sequence (looked up): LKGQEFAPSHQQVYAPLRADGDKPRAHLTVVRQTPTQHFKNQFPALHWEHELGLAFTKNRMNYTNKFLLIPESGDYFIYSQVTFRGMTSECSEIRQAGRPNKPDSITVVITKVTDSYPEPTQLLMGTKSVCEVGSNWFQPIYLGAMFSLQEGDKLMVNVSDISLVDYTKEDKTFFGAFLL
- ASSAY: ELISA titration, coated human TL1A, culture supernatant
Interpret pKd as the negative base-10 log of the concentration measured in mol/L.

[in] So what does the record say about pKd for A99 (antibody, human IgG1, V domains shown, human IgG1/kappa (pFuse vectors), culture supernatant) VH: QVQLVQSGAEVKKPGASVKVSCKASGFDIQDTYMHWVRQAPGQGLEWMGRIEPASGHIKYDPKFQVRVTITRDTSTSTVYMELSSLRSEDTAVYYCARSGGLPDWWGQGTTVTVSS VL: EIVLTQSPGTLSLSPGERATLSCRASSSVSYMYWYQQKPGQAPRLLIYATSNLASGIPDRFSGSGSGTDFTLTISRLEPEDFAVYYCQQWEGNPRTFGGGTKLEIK ?
[out] 9.99

[in] Repeat for the following binder: A54 (antibody, human IgG1, V domains shown, human IgG1/kappa (pFuse vectors), culture supernatant) VH: DVQLVQSGAEVKKPGASVKVSCKASGFDIQDTYMHWVKQRPGQGLEWIGRIDPASGHTKYDPKFQVRATITTDTSTSTAYLELSSLRSEDTAVYYCARSGGLPDVWGQGTTVTVSS VL: EIVLTQSPGTLSASPGERATMSCRASSSVSYMYWYQQKPGQAPRPWIYATSNLASGVPDRFSGSGSGTDYTLTISRVEPEDFAVYYCQQWSGNPRTFGGGTKLEIK
[out] 10.08

[in] And then A127 (antibody, human IgG1, V domains shown, human IgG1/kappa (pFuse vectors), culture supernatant) VH: QVQLVQSGAEVKKPGASVKVSCKASGFDIQDTYMHWVKQRPGQGLEWMGRIDPASGHTKYDPKFQVRVTITTDTSTSTAYLELSSLRSEDTAVYYCARSGGLPDVWGQGTTVTVSS VL: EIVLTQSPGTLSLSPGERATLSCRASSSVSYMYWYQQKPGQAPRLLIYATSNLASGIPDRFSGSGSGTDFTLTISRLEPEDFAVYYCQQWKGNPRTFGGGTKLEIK , what is it?
[out] 10.15
